Experiment: self-splicing fitness, log relative to wild type (ln ratio); higher = more splicing; Tetrahymena group I intron in knt gene, E. coli kanamycin selection, DiMSum; sequences stand for … in CUCUCU…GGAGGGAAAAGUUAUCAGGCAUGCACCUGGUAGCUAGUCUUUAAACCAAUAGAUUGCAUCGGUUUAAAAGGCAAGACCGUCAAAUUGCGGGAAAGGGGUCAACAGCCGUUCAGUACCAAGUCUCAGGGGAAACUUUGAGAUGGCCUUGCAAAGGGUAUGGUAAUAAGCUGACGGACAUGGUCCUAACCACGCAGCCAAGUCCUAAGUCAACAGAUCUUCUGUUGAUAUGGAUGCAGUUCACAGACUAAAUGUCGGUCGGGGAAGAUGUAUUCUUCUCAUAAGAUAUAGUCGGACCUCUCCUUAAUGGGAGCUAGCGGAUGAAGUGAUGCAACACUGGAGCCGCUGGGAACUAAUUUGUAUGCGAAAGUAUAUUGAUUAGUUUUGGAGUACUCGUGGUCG;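 further: selection with 25 µg/mL kanamycin versus none on LB agar overnight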
Details: 30 °C
result_type: self-splicing fitness (ln)

[[record]]
biosequence = "ACCUAGCAAUAUUACGUUGA"
recorded_result = -1.98

[[record]]
biosequence = "GCAGAGCAAUAUUACGAUAC"
recorded_result = -2.79

[[record]]
biosequence = "CAGCAGCAAUAUUACGACAA"
recorded_result = -3.11

[[record]]
biosequence = "CUAUAGCAAUAUUACGCGAU"
recorded_result = -2.31

[[record]]
biosequence = "GCGUAGCAAUAUUACGAGCU"
recorded_result = -1.5

[[record]]
biosequence = "AAGCAGCAAUAUUACGGGCU"
recorded_result = -1.64

[[record]]
biosequence = "CAAGAGCAAUAUUACGUGUC"
recorded_result = -4.19

[[record]]
biosequence = "CAGAAGCAAUAUUACGCUUG"
recorded_result = -4.25

